B1: glmS ribozyme (parent)
chain: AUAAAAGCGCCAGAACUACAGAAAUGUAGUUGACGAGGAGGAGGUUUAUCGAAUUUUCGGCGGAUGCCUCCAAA

Variants of: B1
Assay Name: self-cleavage kobs at 640 uM GlcN6P; higher = faster cleavage; RNA array
Condition Description: with glucosamine-6-phosphate
Fewer inactive variants are shown than the library holds.
Assay Metric: self-cleavage kobs at 640 uM GlcN6P

Consider the following illustrative entries.
- Polymer Sequence: "AUAAAAGCGCCAGAACUACAGAAAUGUAGUUGACGAGGAGGUGGUUUAUCGAAUUUUCGGCGGAUGCCUAGAAA [A42U C70A C71G]"
  self-cleavage kobs at 640 uM GlcN6P: "< 1e-05 s⁻¹"
- Polymer Sequence: "AUAAAGGCGCCAGAACUACAGAAAUGUAGUAGACGAGGAGGAGUUUUAUCGAAUUUUCGGCGGAUGGCUCCAAA [A6G U31A G44U C67G]"
  self-cleavage kobs at 640 uM GlcN6P: "< 1e-05 s⁻¹"
- Polymer Sequence: "AUAAAAGCGCCAGAACUACAGAAAUGUAGUUGACGAGGAGUAGGUAUAUCGAAUUUUCGGCGGAUGCCUCCAAA [G41U U46A]"
  self-cleavage kobs at 640 uM GlcN6P: "9.28e-05 s⁻¹"
- Polymer Sequence: "AUAAAAGGGCCAGAACUACAGAAAUGUAGUUGUCGAGGAGGAGGUUUAUCGAAUUUUCGGCGGAUGCCUCCAAA [C8G A33U]"
  self-cleavage kobs at 640 uM GlcN6P: "< 1e-05 s⁻¹"
- Polymer Sequence: "AUAAAGGCGCCAGAACUACAGAAAUGUAGUUGACGAGGAGGAGGUUUAUCGAAUUUUCGGCCGAUGCCUCCAAA [A6G G62C]"
  self-cleavage kobs at 640 uM GlcN6P: "< 1e-05 s⁻¹"

AUAAAAGCGCCAGGACUACAGAAAUGUAGUAGACGAGGAGAAGGUUUAUCGAAUUUUCGGCGGAUGCCUCUAAA [A14G U31A G41A C71U] has a reported self-cleavage kobs at 640 uM GlcN6P of 0.000186 s⁻¹

Sample AUAAAAUCGCCAGAACUACAGAAAUGUAGUUGACGAGGAGGAGGUUUAUCGAUUUUUCGGCGGAGGCCUCCAAA [G7U A53U U65G] ; self-cleavage kobs at 640 uM GlcN6P observed: < 1e-05 s⁻¹

Looking up AUAAAAGCGCCAGAACUACAGAAAUGUAGUUGACGAGGAGGAGGUUUAUCGAGUUUUCGGCGGAUGCCUUCAAA [A53G C70U] , I found its self-cleavage kobs at 640 uM GlcN6P recorded as 0.0139 s⁻¹

Field self-cleavage kobs at 640 uM GlcN6P (entry AUAAAAGCGCCAGAACUACAGAAAUGUAGUUGUCUAGGAGGAGGUUUAUCGAAAUUUCGGCGGAUGCCUCCAAA [A33U G35U U54A] ) reads < 1e-05 s⁻¹

Please fill in: self-cleavage kobs at 640 uM GlcN6P reported for AUAAAAGGGCCAGAGCUACAGAAAUGUAGUUGACGAGGAUGAGGUUUAUCGAAUUUUCGGCGGAUGCCUCCAAA [C8G A15G G40U] = < 1e-05 s⁻¹

Consider AUAAAUGCGCCAGCACUACAGAAAUGUAGUUGACGAGGAGGAGGUUUAUCAAAUUUUCGGCGGAUGCCUCCAAA [A6U A14C G51A] . Its measured self-cleavage kobs at 640 uM GlcN6P is < 1e-05 s⁻¹
